# target.or.system: Dyrk1A (Homo sapiens, UniProt Q13627)
pIC50: −log10 of the molar value.
property: pIC50

In [3]: df
Out[3]:
                     chemical_smiles  property  observed_measurement
0  COc1ccccc1CNC(=O)c1cc2cc(O)ccc2s1     pIC50                  6.25
1  O=C(NCc1ccccc1Cl)c1cc2cc(O)ccc2s1     pIC50                  6.15
2   Cc1ccccc1CNC(=O)c1cc2cc(O)ccc2s1     pIC50                  6.07

====

# target.or.system: Dyrk1B (Homo sapiens, UniProt Q9Y463)
# Sequence (Q9Y463 whole entry): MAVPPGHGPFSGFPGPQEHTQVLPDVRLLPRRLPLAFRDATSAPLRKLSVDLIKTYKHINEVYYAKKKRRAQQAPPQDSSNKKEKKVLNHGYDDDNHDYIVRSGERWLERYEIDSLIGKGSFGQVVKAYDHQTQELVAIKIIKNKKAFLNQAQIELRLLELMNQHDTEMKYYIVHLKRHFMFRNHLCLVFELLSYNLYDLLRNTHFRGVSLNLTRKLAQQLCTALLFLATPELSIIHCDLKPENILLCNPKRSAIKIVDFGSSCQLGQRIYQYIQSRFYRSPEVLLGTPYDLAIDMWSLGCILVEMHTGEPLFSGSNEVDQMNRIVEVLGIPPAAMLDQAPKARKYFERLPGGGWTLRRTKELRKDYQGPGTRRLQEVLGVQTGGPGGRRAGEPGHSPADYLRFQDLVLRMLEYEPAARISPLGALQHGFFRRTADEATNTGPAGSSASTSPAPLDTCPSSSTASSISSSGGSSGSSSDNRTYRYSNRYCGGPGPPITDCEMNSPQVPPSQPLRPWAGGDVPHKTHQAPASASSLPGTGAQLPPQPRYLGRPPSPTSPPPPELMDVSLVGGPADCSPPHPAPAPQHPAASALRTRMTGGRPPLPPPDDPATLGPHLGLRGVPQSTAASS
# protocol.summary: Z'-LYTE kinase inhibition assay, Dyrk1B
# Assay type: biochemical
# setup.conditions: read-out: Dyrk1B % Inh. At 1 µM
Below, each entry is listed with its recorded inhibition at 1 µM.
property: inhibition at 1 µM

                                    molecule                       target_or_system            property  observed_measurement
 0  O=C(NCc1cccnc1)c1cc2cc(O)ccc2s1 [Compound 26]  Dyrk1B (Homo sapiens, UniProt Q9Y463)  inhibition at 1 µM                   39%
 1  COc1cc(CNC(=O)c2cc3cc(O)ccc3s2)cc(OC)c1 [Compound 23]  Dyrk1B (Homo sapiens, UniProt Q9Y463)  inhibition at 1 µM                   22%
 2  O=C(NCc1ccccc1F)c1cc2cc(O)ccc2s1 [Compound 5]  Dyrk1B (Homo sapiens, UniProt Q9Y463)  inhibition at 1 µM                   62%
 3  COc1ccc(CNC(=O)c2cc3cc(O)ccc3s2)cc1OC [Compound 22]  Dyrk1B (Homo sapiens, UniProt Q9Y463)  inhibition at 1 µM                   16%
 4  COc1ccc(CNC(=O)c2cc3cc(O)ccc3s2)cc1 [Compound 13]  Dyrk1B (Homo sapiens, UniProt Q9Y463)  inhibition at 1 µM                   16%
 5  O=C(NCCc1ccccc1)c1cc2cc(O)ccc2s1 [Compound 29]  Dyrk1B (Homo sapiens, UniProt Q9Y463)  inhibition at 1 µM                   48%
 6  O=C(NCCc1c[nH]c2ccccc12)c1cc2cc(O)ccc2s1 [Compound 30]  Dyrk1B (Homo sapiens, UniProt Q9Y463)  inhibition at 1 µM                   40%
 7  COc1cccc(CNC(=O)c2cc3cc(O)ccc3s2)c1OC [Compound 20]  Dyrk1B (Homo sapiens, UniProt Q9Y463)  inhibition at 1 µM                   19%
 8  O=C(NCc1cc(Cl)cc(Cl)c1)c1cc2cc(O)ccc2s1 [Compound 14]  Dyrk1B (Homo sapiens, UniProt Q9Y463)  inhibition at 1 µM                   12%
 9  Cc1cc(C)cc(CNC(=O)c2cc3cc(O)ccc3s2)c1 [Compound 19]  Dyrk1B (Homo sapiens, UniProt Q9Y463)  inhibition at 1 µM                    0%
10  O=C(c1cc2cc(O)ccc2s1)N1Cc2ccc(Cl)cc2C1 [Compound 25]  Dyrk1B (Homo sapiens, UniProt Q9Y463)  inhibition at 1 µM                   24%
11  O=C(NCc1cccc(F)c1)c1cc2cc(O)ccc2s1 [Compound 6]  Dyrk1B (Homo sapiens, UniProt Q9Y463)  inhibition at 1 µM                   71%
12  Cc1ccccc1CNC(=O)c1cc2cc(O)ccc2s1 [Compound 8]  Dyrk1B (Homo sapiens, UniProt Q9Y463)  inhibition at 1 µM                   48%
13  O=C(NCc1cc(C(F)(F)F)cc(C(F)(F)F)c1)c1cc2cc(O)ccc2s1 [Compound 18]  Dyrk1B (Homo sapiens, UniProt Q9Y463)  inhibition at 1 µM                    0%
14  O=C(NCc1ccco1)c1cc2cc(O)ccc2s1 [Compound 28]  Dyrk1B (Homo sapiens, UniProt Q9Y463)  inhibition at 1 µM                   52%
15  O=C(NCc1cc(F)cc(F)c1)c1cc2cc(O)ccc2s1 [Compound 17]  Dyrk1B (Homo sapiens, UniProt Q9Y463)  inhibition at 1 µM                   81%
16  O=C(NCc1cccc(Cl)c1)c1cc2cc(O)ccc2s1 [Compound 3]  Dyrk1B (Homo sapiens, UniProt Q9Y463)  inhibition at 1 µM                   66%
17  COc1ccc(CNC(=O)c2cc3cc(O)ccc3s2)c(OC)c1 [Compound 21]  Dyrk1B (Homo sapiens, UniProt Q9Y463)  inhibition at 1 µM                   17%
18  Cc1ccc(CNC(=O)c2cc3cc(O)ccc3s2)cc1 [Compound 10]  Dyrk1B (Homo sapiens, UniProt Q9Y463)  inhibition at 1 µM                    0%
19  O=C(NCc1cccs1)c1cc2cc(O)ccc2s1 [Compound 27]  Dyrk1B (Homo sapiens, UniProt Q9Y463)  inhibition at 1 µM                   61%
20  O=C(NCc1ccc(F)cc1)c1cc2cc(O)ccc2s1 [Compound 7]  Dyrk1B (Homo sapiens, UniProt Q9Y463)  inhibition at 1 µM                   38%

====

# Lookup of reported inhibition at 1 µM keyed by entry
# target.or.system: UniProt:P49761
# Sequence (P49761 whole entry): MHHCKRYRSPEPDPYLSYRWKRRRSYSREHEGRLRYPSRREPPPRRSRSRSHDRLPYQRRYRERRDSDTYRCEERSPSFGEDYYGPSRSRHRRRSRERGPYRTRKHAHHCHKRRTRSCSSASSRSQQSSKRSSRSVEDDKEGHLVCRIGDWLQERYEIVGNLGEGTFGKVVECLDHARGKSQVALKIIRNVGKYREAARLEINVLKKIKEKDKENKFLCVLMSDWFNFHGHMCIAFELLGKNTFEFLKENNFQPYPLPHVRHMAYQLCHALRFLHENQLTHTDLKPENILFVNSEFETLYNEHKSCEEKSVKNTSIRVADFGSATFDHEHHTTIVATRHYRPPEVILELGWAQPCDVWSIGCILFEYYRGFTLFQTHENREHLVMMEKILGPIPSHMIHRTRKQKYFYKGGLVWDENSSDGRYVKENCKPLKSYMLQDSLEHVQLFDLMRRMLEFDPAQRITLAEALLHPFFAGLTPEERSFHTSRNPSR
# protocol.summary: Z'-LYTE kinase inhibition assay, Clk3
# Assay type: biochemical
# setup.conditions: 1 µM compound; screening by Thermo Fisher Scientific
property: inhibition at 1 µM

>>> df
                                   molecule            property  observed_measurement
0  COc1cccc(CNC(=O)c2cc3cc(O)ccc3s2)c1 [Compound 12]  inhibition at 1 µM                   26%
1  O=C(NCc1cccc(F)c1)c1cc2cc(O)ccc2s1 [Compound 6]  inhibition at 1 µM                   27%
2  O=C(NCc1cc(F)cc(F)c1)c1cc2cc(O)ccc2s1 [Compound 17]  inhibition at 1 µM                   26%
3  O=C(NCc1cccc(Cl)c1)c1cc2cc(O)ccc2s1 [Compound 3]  inhibition at 1 µM                   22%
4  COc1ccccc1CNC(=O)c1cc2cc(O)ccc2s1 [Compound 11]  inhibition at 1 µM                   24%

====

# target.or.system: GSG2 (Haspin) (Homo sapiens, UniProt Q8TF76)
# Construct: purchased Thermo Fisher Scientific, Madison, WI, USA (assay run there)
# Sequence (Q8TF76 whole entry): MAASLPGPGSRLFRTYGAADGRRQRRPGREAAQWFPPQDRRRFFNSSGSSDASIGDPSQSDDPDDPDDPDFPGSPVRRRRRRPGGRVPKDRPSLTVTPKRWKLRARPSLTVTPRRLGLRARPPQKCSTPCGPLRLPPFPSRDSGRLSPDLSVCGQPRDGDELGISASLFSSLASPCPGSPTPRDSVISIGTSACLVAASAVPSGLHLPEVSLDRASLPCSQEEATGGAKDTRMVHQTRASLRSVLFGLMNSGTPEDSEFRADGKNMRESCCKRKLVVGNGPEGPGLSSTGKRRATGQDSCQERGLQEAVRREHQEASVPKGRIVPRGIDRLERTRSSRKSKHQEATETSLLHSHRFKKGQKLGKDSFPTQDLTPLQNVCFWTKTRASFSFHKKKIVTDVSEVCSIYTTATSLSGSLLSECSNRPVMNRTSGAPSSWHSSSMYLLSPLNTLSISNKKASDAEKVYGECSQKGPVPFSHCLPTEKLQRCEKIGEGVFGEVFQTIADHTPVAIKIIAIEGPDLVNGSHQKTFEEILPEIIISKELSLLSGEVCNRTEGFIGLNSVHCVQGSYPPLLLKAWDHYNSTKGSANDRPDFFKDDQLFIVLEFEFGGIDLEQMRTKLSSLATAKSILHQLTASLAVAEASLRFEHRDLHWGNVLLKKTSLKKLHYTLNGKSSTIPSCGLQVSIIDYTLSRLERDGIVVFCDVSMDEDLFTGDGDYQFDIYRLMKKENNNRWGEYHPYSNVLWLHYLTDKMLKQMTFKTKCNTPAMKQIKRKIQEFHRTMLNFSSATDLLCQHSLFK
# protocol.summary: Adapta universal kinase assay, Haspin
# Type: biochemical
# setup.conditions: 1 µM compound; screening by Thermo Fisher Scientific
Hi, to clarify the labels: Satisfied covers inhibition at 1 µM from 80% upward, Not satisfied covers anything below 80%.

>>> df
                       chemical_smiles          group
0    COc1ccccc1CNC(=O)c1cc2cc(O)ccc2s1  Not satisfied
1  O=C(NCc1cccc(Cl)c1)c1cc2cc(O)ccc2s1  Not satisfied
2  COc1cccc(CNC(=O)c2cc3cc(O)ccc3s2)c1      Satisfied
3   O=C(NCc1cccc(F)c1)c1cc2cc(O)ccc2s1      Satisfied

====

# target.or.system: Dyrk1A (Homo sapiens, UniProt Q13627)
# protocol.summary: Z'-LYTE kinase inhibition assay, Dyrk1A
# Assay type: biochemical
# setup.conditions: read-out: Dyrk1A % Inh. At 1 µM
This listing pairs compounds with measured inhibition at 1 µM.
property: inhibition at 1 µM (%)

>>> df
                             chemical_smiles  observed_measurement
 0     Cc1cc(C)cc(CNC(=O)c2cc3cc(O)ccc3s2)c1                    22
 1         O=C(NCc1ccccc1Cl)c1cc2cc(O)ccc2s1                    61
 2     O=C(NCc1cc(F)cc(F)c1)c1cc2cc(O)ccc2s1                    67
 3          Cc1ccccc1CNC(=O)c1cc2cc(O)ccc2s1                    61
 4       O=C(NCc1cccc(Cl)c1)c1cc2cc(O)ccc2s1                    60
 5  O=C(NCc1cc(C(F)(F)F)cc(C(F)(F)F)c1)c1cc2cc(O)ccc2s1                     8
 6        O=C(NCc1ccc(F)cc1)c1cc2cc(O)ccc2s1                    26
 7           O=C(NCc1ccccc1)c1cc2cc(O)ccc2s1                    46
 8       O=C(NCc1ccc(F)cc1F)c1cc2cc(O)ccc2s1                    40
 9       O=C(NCc1cccc(F)c1F)c1cc2cc(O)ccc2s1                    53
10   COc1ccc(CNC(=O)c2cc3cc(O)ccc3s2)c(OC)c1                     9
11       COc1ccc(CNC(=O)c2cc3cc(O)ccc3s2)cc1                     9
12          O=C(NCc1ccccc1F)c1cc2cc(O)ccc2s1                    48
13        O=C(NCc1cccc(F)c1)c1cc2cc(O)ccc2s1                    60
14       O=C(NCc1ccc(Cl)cc1)c1cc2cc(O)ccc2s1                     7
15       O=C(c1cc2cc(O)ccc2s1)N1CCc2ccccc2C1                    12
16  O=C(NCCc1c[nH]c2ccccc12)c1cc2cc(O)ccc2s1                    20
17        Cc1cccc(CNC(=O)c2cc3cc(O)ccc3s2)c1                    33
18          O=C(NCCc1ccccc1)c1cc2cc(O)ccc2s1                    29
19       COc1cccc(CNC(=O)c2cc3cc(O)ccc3s2)c1                    65
